Cited source: patent US9458137B2

system: abl kinase; test: abl kinase inhibition assay; format: biochemical
Here the recorded % Inhibition @1 μM Abl is given for each entry.
Write down the numeric answer in % and omit the unit.

The examples below pair each entry with its known result.
>  <molecule>
C/C=C/c1cc(Nc2cc(N3CCNCC3)nc(Oc3ccc4[nH]c(C)cc4c3F)n2)n[nH]1

>  <% Inhibition @1 μM Abl, %>
107

$$$$
>  <molecule>
Cc1cc2c(F)c(Oc3nc(Nc4cc(C5CC5)[nH]n4)cc(N4CCOCC4)n3)ccc2n1C

>  <% Inhibition @1 μM Abl, %>
114

$$$$

// lookup % Inhibition @1 μM Abl | system=abl kinase | key= C/C=C/c1cc(Nc2cc(N3CCC(OC)C3)nc(Oc3ccc4[nH]c(C)cc4c3F)n2)n[nH]1 (stereo not shown)
111

// lookup % Inhibition @1 μM Abl | system=abl kinase | key= C/C=C/c1cc(Nc2cc(N3CCS(=O)(=O)CC3)nc(Oc3ccc4[nH]c(C)cc4c3F)n2)n[nH]1
111
